# TARGET OR SYSTEM: T1, human gastric inhibitory peptide receptor (GIPR) (human, UniProt P48546 22-466)
# T1 sequence (looked up): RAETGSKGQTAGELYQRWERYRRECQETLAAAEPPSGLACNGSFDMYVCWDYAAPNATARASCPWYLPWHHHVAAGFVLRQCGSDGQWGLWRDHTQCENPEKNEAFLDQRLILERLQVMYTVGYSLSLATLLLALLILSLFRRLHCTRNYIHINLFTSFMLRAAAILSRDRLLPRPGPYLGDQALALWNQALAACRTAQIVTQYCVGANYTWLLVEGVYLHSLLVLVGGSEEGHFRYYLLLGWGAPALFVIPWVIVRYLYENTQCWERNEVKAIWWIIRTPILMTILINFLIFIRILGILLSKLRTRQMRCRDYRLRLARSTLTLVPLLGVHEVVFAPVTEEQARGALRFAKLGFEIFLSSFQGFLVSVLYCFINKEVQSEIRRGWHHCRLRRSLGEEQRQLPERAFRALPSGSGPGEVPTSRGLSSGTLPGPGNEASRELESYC
# TEST PROTOCOL: cell-based or functional assay
Numbered stars: 1 amine (or outer) side, 2 acyl side, 3 side chain; on linkers, the order of the positions; unused ones are H or OH. Square brackets hold non-standard residues; d marks the D form. Side chains are listed from the residue outwards. Ends that are not written are not given here. * marks the point of attachment. C20 diacid = O=C(O)CCCCCCCCCCCCCCCCCCC(=O)*; C18 diacid = O=C(O)CCCCCCCCCCCCCCCCC(=O)*; αMePhe(2-F) = C[C@](N)(Cc1ccccc1F)C(=O)O; γGlu = O=C(O)[C@H](CCC(=O)[*:2])N[*:1]; Desaminotyrosyl = O=C(CCc1ccc(O)cc1)*; αMeF = C[C@](N)(Cc1ccccc1)C(=O)O; AEEA = NCCOCCOCC(=O)O; Aib = CC(C)(N)C(=O)O
REPORTED METRIC: hGIPR cAMP Rel EC50 (nM)

1) YXEGTXTSDHSIXLDEKAQXHFIXYLIEGGPSSGAPPPS (Y-Aib-EGT-αMeF(2F)-TSDHSI-αMeF-LDEK((2-[2-(2-Amino-ethoxy)-ethoxy]-acetyl)2-(γ-Glu)-CO-(CH2)14-CO2H)AQ-Aib-HFI-(D-Glu)-YLIEGGPSSGAPPPS-NH2) [Example 178] :: 3.08
2) Y[Aib]EGT[αMeF]TSDASIXLDKKAQ[Aib]AFIEYLIEGGPSSGAPPPS-NH2 (not fully specified (residues 13, 17); printed as Y-Aib-EGT-αMeF-TSDASI-αMeF-LDKK((2-[2-(2-Amino-ethoxy)-ethoxy]-acetyl)2-(γ-Glu)-CO-(CH2)18-CO2H)AQ-Aib-AFIEYLIEGGPSSGAPPPS-NH2) [Example 145] :: 0.0514
3) YXEGTXTSDHSIXLDXKAQXTFIXYLIEGGPSSGAPPPS (Y-Aib-EGT-αMeF(2F)-TSDHSI-αMeF-LD-Orn-K((2-[2-(2-Amino-ethoxy)-ethoxy]-acetyl)2-(γ-Glu)-CO-(CH2)18-CO2H)AQ-Aib-TFI-(D-Glu)-YLIEGGPSSGAPPPS-NH2) [Example 171] :: 0.223
4) YXEGTXTSDLSILLDKKAQXAFIEYLIEGGPSSGAPPPS (Y-Aib-EGT-αMeF-TSDLSILLDKK((2-[2-(2-Amino-ethoxy)-ethoxy]-acetyl)2-(γ-Glu)-CO-(CH2)18-CO2H)AQ-Aib-AFIEYLIEGGPSSGAPPPS-NH2) [Example 129] :: 0.106
5) [Desaminotyrosyl]AEGTFTSDYSILLDEK([AEEA-AEEA-γGlu-C20 diacid])AQQAFIEYLIEGGPSSGAPPPS-NH2 [Example 200] :: 12.3
6) Y[Aib]EGT[αMePhe(2-F)]TSDYSIXLDEK([AEEA-AEEA-γGlu-C18 diacid])AQ[Aib]EFI[dE]YLIEGGPSSG-NH2 (not fully specified (residue 13); printed as Y-Aib-EGT-αMeF(2F)-TSDYSI-αMeF-LDEK((2-[2-(2-Amino-ethoxy)-ethoxy]-acetyl)2-(γ-Glu)-CO-(CH2)16-CO2H)AQ-Aib-EFI-(D-Glu)-YLIEGGPSSG-NH2) [Example 219] :: 0.0341
7) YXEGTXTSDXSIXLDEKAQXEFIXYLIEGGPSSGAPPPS (Y-Aib-EGT-αMeF(2F)-TSD-(D-Tyr)-SI-αMeF-LDEK((2-[2-(2-Amino-ethoxy)-ethoxy]-acetyl)2-(γ-Glu)-CO-(CH2)18-CO2H)AQ-Aib-EFI-(D-Glu)-YLIEGGPSSGAPPPS-NH2) [Example 184] :: 0.0477
8) Y[Aib]EGT[αMePhe(2-F)]TSDYSIXLDEKAQ[Aib]EFIHYLIEGGPSSGAPPPS-NH2 (not fully specified (residues 13, 17); printed as Y-Aib-EGT-αMeF(2F)-TSDYSI-αMeF-LDEK((2-[2-(2-Amino-ethoxy)-ethoxy]-acetyl)2-(γ-Glu)-CO-(CH2)18-CO2H)AQ-Aib-EFIHYLIEGGPSSGAPPPS-NH2) [Example 153] :: 0.0634
9) YXEGTXTSDXSILLDXKAQXEFIXYLIEGGPSSGAPPPS (Y-Aib-EGT-αMeF(2F)-TSD-4Pal-SILLD-Dab-K((2-[2-(2-Amino-ethoxy)-ethoxy]-acetyl)2-(γ-Glu)-CO-(CH2)16-CO2H)AQ-Aib-EFI-(D-Glu)-YLIEGGPSSGAPPPS-NH2) [Example 234] :: 0.0372
10) Y[Aib]EGT[αMePhe(2-F)]TSDYSIXLDEKAQ[Aib]EFIVYLIEGGPSSGAPPPS-NH2 (not fully specified (residues 13, 17); printed as Y-Aib-EGT-αMeF(2F)-TSDYSI-αMeF-LDEK((2-[2-(2-Amino-ethoxy)-ethoxy]-acetyl)2-(γ-Glu)-CO-(CH2)18-CO2H)AQ-Aib-EFIVYLIEGGPSSGAPPPS-NH2) [Example 149] :: 0.0711
11) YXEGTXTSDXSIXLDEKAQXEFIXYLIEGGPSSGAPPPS (Y-Aib-EGT-αMeF(2F)-TSD-4Pal-SI-αMeF-LDEK((2-[2-(2-Amino-ethoxy)-ethoxy]-acetyl)2-(γ-Glu)-CO-(CH2)18-CO2H)AQ-Aib-EFI-(D-Glu)-YLIEGGPSSGAPPPS-NH2) [Example 182] :: 0.0442
12) Y[Aib]EGT[αMeF]TSDYSIXLDKKAQH[Aib]FIEYLIEGGPSSGAPPPS-NH2 (not fully specified (residues 13, 17); printed as Y-Aib-EGT-αMeF-TSDYSI-αMeF-LDKK((2-[2-(2-Amino-ethoxy)-ethoxy]-acetyl)2-(γ-Glu)-CO-(CH2)18-CO2H)AQH-Aib-FIEYLIEGGPSSGAPPPS-NH2) [Example 144] :: 0.0375
13) YXEGTXTSDHSILLDKKAQXAFIEYLIEGGPSSGAPPPS (Y-Aib-EGT-αMeF-TSDHSILLDKK((2-[2-(2-Amino-ethoxy)-ethoxy]-acetyl)2-(γ-Glu)-CO-(CH2)18-CO2H)AQ-Aib-AFIEYLIEGGPSSGAPPPS-NH2) [Example 128] :: 0.0694
14) [Desaminotyrosyl][Aib]EGT[αMePhe(2-F)]TSDYSIXLDEK([AEEA-AEEA-γGlu-C20 diacid])AQ[Aib]EFIEYLIEGGPSSGAPPPS-NH2 (not fully specified (residue 13); printed as DesTyr-Aib-EGT-αMeF(2F)-TSDYSI-αMeF-LDEK((2-[2-(2-Amino-ethoxy)-ethoxy]-acetyl)2-(γ-Glu)-CO-(CH2)18-CO2H)AQ-Aib-EFIEYLIEGGPSSGAPPPS-NH2) [Example 134] :: 0.104
15) YXEGTXTSDHSIXLDEKAQXTFIXYLIEGGPSSGAPPPS (Y-Aib-EGT-αMeF(2F)-TSDHSI-αMeF-LDEK((2-[2-(2-Amino-ethoxy)-ethoxy]-acetyl)2-CO-(CH2)18-CO2H)AQ-Aib-TFI-(D-Glu)-YLIEGGPSSGAPPPS-NH2) [Example 174] :: 0.217
16) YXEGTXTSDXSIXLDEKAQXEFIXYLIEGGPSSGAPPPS (Y-Aib-EGT-αMeF(2F)-TSD-3Pal-SI-αMeF-LDEK((2-[2-(2-Amino-ethoxy)-ethoxy]-acetyl)2-(γ-Glu)-CO-(CH2)18-CO2H)AQ-Aib-EFI-(D-Glu)-YLIEGGPSSGAPPPS-NH2) [Example 181] :: 0.0459

Origin of measurements: patent US20220048967A1
